Consider the following compounds; for each one, report its % Ctrl.
# Tested on: BRK
# Test Name: KINOMEscan kinase binding assay
# Reported Conditions: at 1 μM
Numbers only, in %.

// worked examples, % Ctrl included
Cc1cc2c([nH]1)/C=C1\C(=O)Nc3ccc(cc31)-c1c(nn(C)c1C)OCCCN(C)C2=O    92
C[C@@H]1COCc2nn(C)cc2-c2cc(Cl)c3c(c2)/C(=C/c2[nH]ccc2C(=O)N1)C(=O)N3    83
Cc1cc2c([nH]1)/C=C1\C(=O)Nc3ccc(cc31)-c1c(nn(C)c1C)COCCN(C)C2=O    100
Cc1cc2c([nH]1)/C=C1\C(=O)Nc3c(Cl)cc(cc31)-c1cn(C)nc1COC[C@@H](C)NC2=O    95

// below: % Ctrl requested for another compound
Recorded result, Cc1cc2c([nH]1)/C=C1\C(=O)Nc3c(Cl)cc(cc31)-c1cn(C)nc1COC[C@@H](C)N(C)C2=O , % Ctrl: 79

* * *

# System: ABL1(E255K)-phosphorylated
# Test Name: KINOMEscan kinase binding assay
# Reported Conditions: at 1 μM
Measured Property: % Ctrl (%)
One number for each entry, in %.

Cc1cc2c([nH]1)/C=C1\C(=O)Nc3c(Cl)cc(cc31)-c1cn(C)nc1COC[C@@H](C)NC2=O    100

Each compound below has a reported value. Please supply its % Ctrl.
1. C[C@@H]1COCc2nn(C)cc2-c2cc(Cl)c3c(c2)/C(=C/c2[nH]ccc2C(=O)N1)C(=O)N3
2. Cc1cc2c([nH]1)/C=C1\C(=O)Nc3ccc(cc31)-c1c(nn(C)c1C)COCCN(C)C2=O
3. Cc1cc2c([nH]1)/C=C1\C(=O)Nc3ccc(cc31)-c1c(nn(C)c1C)OCCCN(C)C2=O
4. Cc1cc2c([nH]1)/C=C1\C(=O)Nc3c(Cl)cc(cc31)-c1cn(C)nc1COC[C@@H](C)N(C)C2=O

Result:
[94, 45, 92, 79]

* * *

# Test system: EGFR(G719S)
# Test Name: KINOMEscan kinase binding assay
# Reported Conditions: at 1 μM
Measured Property: % Ctrl (%)
One number for each entry, in %.

// worked examples, % Ctrl included
Cc1cc2c([nH]1)/C=C1\C(=O)Nc3c(Cl)cc(cc31)-c1cn(C)nc1COC[C@@H](C)N(C)C2=O    98
Cc1cc2c([nH]1)/C=C1\C(=O)Nc3c(Cl)cc(cc31)-c1cn(C)nc1COC[C@@H](C)NC2=O    100
C[C@@H]1COCc2nn(C)cc2-c2cc(Cl)c3c(c2)/C(=C/c2[nH]ccc2C(=O)N1)C(=O)N3    96

Each compound below has a reported value. Please supply its % Ctrl.
1. Cc1cc2c([nH]1)/C=C1\C(=O)Nc3ccc(cc31)-c1c(nn(C)c1C)OCCCN(C)C2=O
2. Cc1cc2c([nH]1)/C=C1\C(=O)Nc3ccc(cc31)-c1c(nn(C)c1C)COCCN(C)C2=O

Result:
80
77

* * *

Consider the following compounds; for each one, report its % Ctrl.
# Tested on: LTK
# Test Name: KINOMEscan kinase binding assay
# Reported Conditions: at 1 μM
Give bare numbers, in %.

// worked examples, % Ctrl included
Cc1cc2c([nH]1)/C=C1\C(=O)Nc3ccc(cc31)-c1c(nn(C)c1C)COCCN(C)C2=O [Cpd. 2]    100
C[C@@H]1COCc2nn(C)cc2-c2cc(Cl)c3c(c2)/C(=C/c2[nH]ccc2C(=O)N1)C(=O)N3 [Cpd. 4]    100
Cc1cc2c([nH]1)/C=C1\C(=O)Nc3c(Cl)cc(cc31)-c1cn(C)nc1COC[C@@H](C)NC2=O [Cpd. 3]    100
Cc1cc2c([nH]1)/C=C1\C(=O)Nc3ccc(cc31)-c1c(nn(C)c1C)OCCCN(C)C2=O [Cpd. 1]    74

// below: % Ctrl requested for another compound
Recorded result, Cc1cc2c([nH]1)/C=C1\C(=O)Nc3c(Cl)cc(cc31)-c1cn(C)nc1COC[C@@H](C)N(C)C2=O [Cpd. 5] , % Ctrl: 93
